Tested on: U-251
ASSAY REMARKS: NCI tumour cell line growth inhibition, 48 h
Active and inactive are the calls of the source. No stated cut-off is given here; in the data, active = GI50 up to about 1.1 µM and inactive = higher.
Valid outcomes are listed here; reply with one: active, inactive

Examples from the recorded data:
MOLECULE	EXPERIMENTAL SYSTEM	ASSIGNED LABEL
Cc1cccc(NC(=O)CSc2nnc(-c3ccc(/N=C\c4ccc(Cl)cc4)cc3)o2)c1	U-251	inactive
COc1cc(S(=O)(=O)Nc2nc(-c3ccc(N)cc3)cs2)ccc1Cl	U-251	inactive
O=C1c2c(Br)sc(Br)c2[C@@H](O)[C@H]1O	U-251	inactive
C=CCNC1=C2C[C@@H](C)C[C@@H](OC)[C@H](OC(=O)CCN(C)C)[C@H](C)/C=C(\C)[C@@H](OC(N)=O)[C@H](OC)/C=C\C=C(/C)C(=O)NC(=CC1=O)C2=O	U-251	active
CC1(N2CCOCC2)CC2C(=[N+]1[O-])CCC/C2=N/O (centres undefined)	U-251	inactive
O=[N+]([O-])C(/C(Cl)=C(\Cl)Br)=C(/Cl)SCc1ccccc1	U-251	inactive

Please share the test call associated with CCCCCC(/C=N/NC(N)=S)C(O)(C(F)(F)F)C(F)(F)F (centres undefined) . inactive

Please share the test call associated with CC1=Nc2c(O)nc(S)nc2NC(c2ccc(Cl)c(Cl)c2)C1 (centres undefined) . inactive

====

Tested on: SNB-19
ASSAY REMARKS: NCI tumour cell line growth inhibition, 48 h
The source made the active and inactive calls. Cut-off read from the data, not from the text of the source: active = GI50 up to about 1.1 µM and inactive = higher.
VALUE TYPE: GI50

Entry COC(=O)c1ccc2c(c1)CC1(C2)Cc2cc3c(cc2C1=O)CCC3 (stereo not drawn) has what GI50? > 100 µM (inactive)

Entry COC(=O)C12C3C=CC(O3)C1C1C=CC2O1 (stereo not drawn) has what GI50? > 100 µM (inactive)

Entry "Cn1c(-c2cccs2)cc(-c2ccccc2)c1-c1cccs1" has what GI50? 12.2 µM (inactive)

====

System: RXF 393
ASSAY REMARKS: NCI tumour cell line growth inhibition, 48 h
Activity calls are given as the source filed them. Cut-off read from the data, not from the text of the source: active = GI50 up to about 1.1 µM and inactive = higher.
VALUE TYPE: GI50

Example results:
COMPOUND	GI50
Cc1ccc2c(c1)C(=S)N1CSCC1c1nncn1-2 (centres undefined)	> 100 µM (inactive)
CC(C)(C)OC(=O)N1NC(c2ccccc2)CC1c1ccccc1 (centres undefined)	15.8 µM (inactive)
N#CC(C(=O)CCCC(=O)Nc1ccccc1[N+](=O)[O-])c1c(Cl)cccc1Cl (centres undefined)	> 100 µM (inactive)

// moving on: another record for GI50
Entry "CC(C)=CC(=O)c1[nH]c2ccccc2c1CC(=O)NCCc1c[nH]cn1" has what GI50? > 100 µM (inactive)

====

Test system: UACC-62
ASSAY REMARKS: NCI tumour cell line growth inhibition, 48 h
Activity calls are given as the source filed them. No stated cut-off is given here; in the data, active = GI50 up to about 1.1 µM and inactive = higher.
Valid outcomes are listed here; reply with one: active, inactive

Examples from the recorded data:
MOLECULE	EXPERIMENTAL SYSTEM	ASSIGNED LABEL
Cc1cc(NS(=O)(=O)c2ccc(NC(=O)c3ccc4nc5ccccc5c(Nc5ccc(S(N)(=O)=O)cc5)c4c3)cc2)no1	UACC-62	inactive
COc1nc2c(OC)cccc2c(OC)c1C=O	UACC-62	inactive
O=C1C2CC[C@@H]3C(=O)C(Cl)(Cl)[C@@H]3CCC2C1(Cl)Cl (stereo partly drawn)	UACC-62	inactive
CCCCCCNCCCNc1c2ccccc2nc2cccc([N+](=O)[O-])c12	UACC-62	active
O=Cc1[nH]c2ccccc2c1Br	UACC-62	inactive
C/C(=N\NC(N)=S)c1ccc(/C(C)=N/NC(N)=S)cc1	UACC-62	inactive
O=c1[nH]c(=O)n(C2CC(O)C(CO)O2)cc1C#Cc1c(F)c(F)c(F)c(F)c1F (stereo not drawn)	UACC-62	inactive

Now take the following molecule into account.
Please share the test call associated with CC(C)(C)C1CCC2c3c([nH]c4ccccc34)C3C(=O)N(c4cccc(Cl)c4)C(=O)C3C2C1 (stereo not drawn) . inactive
